- System: Escherichia coli TOP10
- ASSAY SUMMARY: shrunken log2 fold change of peptide-encoding DNA abundance (4.5 h post-induction vs induction); higher = less antimicrobial activity (less host growth inhibition)
- ASSAY SETUP: time post-induction: 4.5 h; library: site-saturation at positions 5, 18, 19, 20
VALUE KIND: shrunken log2 fold change
Answer using only a numeral; do not append any unit.

As a guide, the following entries are already answered.
INSERT INTO assay_data (item_sequence, value_kind, numeric_value) VALUES
  ('RRIRTRPPRLPRPRPRPDEMPRP', 'shrunken log2 fold change', -0.023),
  ('RRIRCRPPRLPRPRPRPDVAPRP', 'shrunken log2 fold change', 0.298),
  ('RRIRNRPPRLPRPRPRPNQPPRP', 'shrunken log2 fold change', -0.055);

*Q* Answer with the recorded shrunken log2 fold change of RRIRFRPPRLPRPRPRPSRKPRP only.
*A* -0.0267

*Q* Answer with the recorded shrunken log2 fold change of RRIRHRPPRLPRPRPRPTLFPRP only.
*A* 0.267

*Q* Answer with the recorded shrunken log2 fold change of RRIRVRPPRLPRPRPRPKVQPRP only.
*A* 3.74

*Q* Answer with the recorded shrunken log2 fold change of RRIRHRPPRLPRPRPRPLERPRP only.
*A* -0.0962

*Q* Answer with the recorded shrunken log2 fold change of RRIRIRPPRLPRPRPRPPSDPRP only.
*A* -0.101

*Q* Answer with the recorded shrunken log2 fold change of RRIRSRPPRLPRPRPRPFGGPRP only.
*A* -0.0941

*Q* Answer with the recorded shrunken log2 fold change of RRIRWRPPRLPRPRPRPSRLPRP only.
*A* 0.00373

*Q* Answer with the recorded shrunken log2 fold change of RRIRQRPPRLPRPRPRPKYGPRP only.
*A* -0.3

*Q* Answer with the recorded shrunken log2 fold change of RRIRFRPPRLPRPRPRPGRHPRP only.
*A* 0.0867

*Q* Answer with the recorded shrunken log2 fold change of RRIRSRPPRLPRPRPRPFWAPRP only.
*A* -0.00411

*Q* Answer with the recorded shrunken log2 fold change of RRIRRRPPRLPRPRPRPHEYPRP only.
*A* -0.0758

*Q* Answer with the recorded shrunken log2 fold change of RRIRWRPPRLPRPRPRPQENPRP only.
*A* -0.0785

*Q* Answer with the recorded shrunken log2 fold change of RRIRARPPRLPRPRPRPVISPRP only.
*A* 0.0798

*Q* Answer with the recorded shrunken log2 fold change of RRIRTRPPRLPRPRPRPWFQPRP only.
*A* -0.195

*Q* Answer with the recorded shrunken log2 fold change of RRIRCRPPRLPRPRPRPTPLPRP only.
*A* 0.522

*Q* Answer with the recorded shrunken log2 fold change of RRIRDRPPRLPRPRPRPANPPRP only.
*A* 0.234

*Q* Answer with the recorded shrunken log2 fold change of RRIRWRPPRLPRPRPRPSRHPRP only.
*A* 0.0203

*Q* Answer with the recorded shrunken log2 fold change of RRIRNRPPRLPRPRPRPKETPRP only.
*A* -0.0238

*Q* Answer with the recorded shrunken log2 fold change of RRIRIRPPRLPRPRPRPSIYPRP only.
*A* -0.925

----------
// values below are reported shrunken log2 fold change
- Test system: Escherichia coli TOP10
- ASSAY SUMMARY: shrunken log2 fold change of peptide-encoding DNA abundance (4.5 h post-induction vs induction); higher = less antimicrobial activity (less host growth inhibition)
- ASSAY SETUP: time post-induction: 4.5 h; library: site-saturation at positions 5, 18, 19, 20
Answer using only a numeral; do not append any unit.

As a guide, the following entries are already answered.
INSERT INTO results (item_sequence, numeric_value) VALUES
  ('RRIRNRPPRLPRPRPRPIPVPRP', 1.22),
  ('RRIRPRPPRLPRPRPRPYLEPRP', -0.634),
  ('RRIRVRPPRLPRPRPRPKYMPRP', -0.433),
  ('RRIRNRPPRLPRPRPRPNDMPRP', -0.457),
  ('RRIRGRPPRLPRPRPRPRGTPRP', 1.16);

*Q* Answer with the recorded shrunken log2 fold change of RRIRNRPPRLPRPRPRPMEYPRP only.
*A* -0.0389

*Q* Answer with the recorded shrunken log2 fold change of RRIRLRPPRLPRPRPRPPACPRP only.
*A* 0.448

*Q* Answer with the recorded shrunken log2 fold change of RRIRNRPPRLPRPRPRPWFNPRP only.
*A* -0.448

*Q* Answer with the recorded shrunken log2 fold change of RRIRARPPRLPRPRPRPVVWPRP only.
*A* 0.687

*Q* Answer with the recorded shrunken log2 fold change of RRIRERPPRLPRPRPRPYIAPRP only.
*A* -0.946

*Q* Answer with the recorded shrunken log2 fold change of RRIRNRPPRLPRPRPRPGSHPRP only.
*A* -0.291

*Q* Answer with the recorded shrunken log2 fold change of RRIRCRPPRLPRPRPRPEPWPRP only.
*A* 0.634

*Q* Answer with the recorded shrunken log2 fold change of RRIRFRPPRLPRPRPRPWYCPRP only.
*A* -0.706

*Q* Answer with the recorded shrunken log2 fold change of RRIRGRPPRLPRPRPRPLGGPRP only.
*A* 0.615

*Q* Answer with the recorded shrunken log2 fold change of RRIRTRPPRLPRPRPRPNWFPRP only.
*A* -0.157

*Q* Answer with the recorded shrunken log2 fold change of RRIRERPPRLPRPRPRPLLQPRP only.
*A* -0.0771

*Q* Answer with the recorded shrunken log2 fold change of RRIRMRPPRLPRPRPRPQDSPRP only.
*A* 0.051

*Q* Answer with the recorded shrunken log2 fold change of RRIRTRPPRLPRPRPRPFLAPRP only.
*A* -0.0751

*Q* Answer with the recorded shrunken log2 fold change of RRIRQRPPRLPRPRPRPEFKPRP only.
*A* -0.0763

*Q* Answer with the recorded shrunken log2 fold change of RRIRARPPRLPRPRPRPCQVPRP only.
*A* -0.47

----------
- System: Escherichia coli TOP10
- ASSAY SUMMARY: shrunken log2 fold change of peptide-encoding DNA abundance (4.5 h post-induction vs induction); higher = less antimicrobial activity (less host growth inhibition)
- ASSAY SETUP: time post-induction: 4.5 h; library: site-saturation at positions 5, 18, 19, 20
Decision: shrunken log2 fold change compared against -0.02; not below it gives y, below it gives n.

Reference set (3 entries):
INSERT INTO assay_data (item_sequence, group) VALUES
  ('RRIRKRPPRLPRPRPRPHEFPRP', 'y'),
  ('RRIRARPPRLPRPRPRPKFGPRP', 'y'),
  ('RRIRIRPPRLPRPRPRPIVHPRP', 'n');

*Q* Determine whether measured shrunken log2 fold change meets or exceeds -0.02 for RRIRERPPRLPRPRPRPAWIPRP
*A* y

*Q* Determine whether measured shrunken log2 fold change meets or exceeds -0.02 for RRIRNRPPRLPRPRPRPNICPRP
*A* n

*Q* Determine whether measured shrunken log2 fold change meets or exceeds -0.02 for RRIRDRPPRLPRPRPRPELGPRP
*A* y

*Q* Determine whether measured shrunken log2 fold change meets or exceeds -0.02 for RRIRTRPPRLPRPRPRPVFWPRP
*A* y

*Q* Determine whether measured shrunken log2 fold change meets or exceeds -0.02 for RRIRARPPRLPRPRPRPCWGPRP
*A* y

*Q* Determine whether measured shrunken log2 fold change meets or exceeds -0.02 for RRIRMRPPRLPRPRPRPWLDPRP
*A* y

*Q* Determine whether measured shrunken log2 fold change meets or exceeds -0.02 for RRIRKRPPRLPRPRPRPLTKPRP
*A* y

----------
- Test system: Escherichia coli TOP10
- ASSAY SUMMARY: shrunken log2 fold change of peptide-encoding DNA abundance (4.5 h post-induction vs induction); higher = less antimicrobial activity (less host growth inhibition)
- ASSAY SETUP: time post-induction: 4.5 h; library: site-saturation at positions 5, 18, 19, 20
// values below are reported shrunken log2 fold change
Answer using only a numeral; do not append any unit.

INSERT INTO assay_data (item_sequence, value_kind, numeric_value) VALUES
  ('RRIRLRPPRLPRPRPRPYVEPRP', 'shrunken log2 fold change', -0.322),
  ('RRIRERPPRLPRPRPRPSVWPRP', 'shrunken log2 fold change', 0.0602);

*Q* Answer with the recorded shrunken log2 fold change of RRIRIRPPRLPRPRPRPCLYPRP only.
*A* -0.248

----------
- Tested on: Escherichia coli TOP10;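 also: peptides expressed intracellularly from a pBAD plasmid library in pooled LB shake-flask culture, induced with 0.3% L-arabinose, DNA abundance read by NGS, three biological replicates, DESeq2 with apeglm shrinkage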
- ASSAY SUMMARY: shrunken log2 fold change of peptide-encoding DNA abundance (4.5 h post-induction vs induction); higher = less antimicrobial activity (less host growth inhibition)
- ASSAY SETUP: time post-induction: 4.5 h; library: site-saturation at positions 5, 18, 19, 20
Decision: shrunken log2 fold change compared against -0.03; not below it gives Y, below it gives N.

Reference set (5 entries):
INSERT INTO assay_data (item_sequence, group) VALUES
  ('RRIRQRPPRLPRPRPRPHCGPRP', 'Y'),
  ('RRIRFRPPRLPRPRPRPPMAPRP', 'Y'),
  ('RRIRRRPPRLPRPRPRPCVKPRP', 'Y'),
  ('RRIRMRPPRLPRPRPRPYCMPRP', 'N'),
  ('RRIRERPPRLPRPRPRPVIDPRP', 'Y');

*Q* Determine whether measured shrunken log2 fold change meets or exceeds -0.03 for RRIRWRPPRLPRPRPRPQFQPRP
*A* N

*Q* Determine whether measured shrunken log2 fold change meets or exceeds -0.03 for RRIRTRPPRLPRPRPRPPCAPRP
*A* Y

*Q* Determine whether measured shrunken log2 fold change meets or exceeds -0.03 for RRIRVRPPRLPRPRPRPIEKPRP
*A* Y

*Q* Determine whether measured shrunken log2 fold change meets or exceeds -0.03 for RRIRMRPPRLPRPRPRPGHCPRP
*A* N

*Q* Determine whether measured shrunken log2 fold change meets or exceeds -0.03 for RRIRDRPPRLPRPRPRPYRCPRP
*A* N
